Molecular target: Adenosine 1 receptor (Homo sapiens)
Construct: expressed in transfected cells; host or cells: Chinese hamster ovary (CHO) cells, co-transfected with a CRE-SPAP reporter
Sequence (P30542 1-326): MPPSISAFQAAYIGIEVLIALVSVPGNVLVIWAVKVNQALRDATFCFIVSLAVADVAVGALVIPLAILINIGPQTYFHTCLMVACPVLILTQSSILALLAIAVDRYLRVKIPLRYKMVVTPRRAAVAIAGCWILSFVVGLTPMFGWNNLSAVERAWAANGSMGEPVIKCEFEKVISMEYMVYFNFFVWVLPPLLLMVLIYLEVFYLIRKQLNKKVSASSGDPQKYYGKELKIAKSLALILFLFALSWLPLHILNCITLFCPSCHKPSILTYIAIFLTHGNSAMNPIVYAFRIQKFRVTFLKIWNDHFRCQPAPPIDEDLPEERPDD
Experiment: Agonist activity against adenosine 1 receptor subtype (CHO cells, forskolin-enhanced cAMP, SPAP reporter)
Type: cell-based
Settings: EC50 ratio to NECA; transfected CHO cells, forskolin-enhanced cAMP reflected by SPAP
Lab note: anything with A1 (EC50 values as a ratio of that of NECA) at or over 60 counts as yes (1); the rest go in no (0).

COMPOUND | LABEL_CLASS
CCc1cc(C2OC(n3cnc4c(NC(CO)Cc5ccccc5)nc(NCCNc5ccccn5)nc43)C(O)C2O)on1 (stereo not shown) | no (0)
CCc1cc([C@H]2O[C@@H](n3cnc4c(NC5CCOCC5)nc(NCCc5ccccn5)nc43)[C@H](O)[C@@H]2O)on1.O=CO.O=CO | yes (1)
CCc1cc(C2OC(n3cnc4c(NC(CO)C(C)C)nc(NCCN5CCCC5)nc43)C(O)C2O)on1 (stereo not shown) | yes (1)
CCc1cc(C2OC(n3cnc4c(NC5CCN(C(C)=O)CC5)nc(NC5CCC(N)CC5)nc43)C(O)C2O)on1 (stereo not shown) | no (0)
CCc1cc([C@H]2O[C@@H](n3cnc4c(NC(CC)CC)nc(NCCN5CCCCC5)nc43)[C@H](O)[C@@H]2O)on1.O=CO.O=CO | yes (1)
CCc1cc(C2OC(n3cnc4c(NC(CC)CC)nc(NCCc5ccccn5)nc43)C(O)C2O)on1 (stereo not shown) | yes (1)

---

Target: Adenosine 1 receptor (Homo sapiens, UniProt P30542)
Construct: expressed in transfected cells; host or cells: Chinese hamster ovary (CHO) cells, co-transfected with a CRE-SPAP reporter
Sequence (P30542 1-326): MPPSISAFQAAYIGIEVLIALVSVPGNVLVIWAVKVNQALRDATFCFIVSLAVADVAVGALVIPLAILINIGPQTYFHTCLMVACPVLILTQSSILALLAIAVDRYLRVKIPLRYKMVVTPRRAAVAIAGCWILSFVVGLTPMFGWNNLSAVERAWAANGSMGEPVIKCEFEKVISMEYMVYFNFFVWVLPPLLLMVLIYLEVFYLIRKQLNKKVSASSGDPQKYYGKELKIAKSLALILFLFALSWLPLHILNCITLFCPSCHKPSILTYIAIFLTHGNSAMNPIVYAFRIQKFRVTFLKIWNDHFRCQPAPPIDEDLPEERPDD
Assay: Agonist activity against adenosine 1 receptor subtype (CHO cells, forskolin-enhanced cAMP, SPAP reporter)
Type: cell-based
Details: EC50 ratio to NECA; transfected CHO cells, forskolin-enhanced cAMP reflected by SPAP
Lab note: anything with A1 (EC50 values as a ratio of that of NECA) at or over 100 counts as 1; the rest go in -1.

COMPOUND | LABEL_CLASS
CCc1cc(C2OC(n3cnc4c(NCCS(=O)(=O)NC)nc(NC(CO)Cc5ccccc5)nc43)C(O)C2O)on1 (stereo not drawn) | -1
CCc1cc([C@H]2O[C@@H](n3cnc4c(NC(CC)CC)nc(NCCNc5ccccn5)nc43)[C@H](O)[C@@H]2O)on1.O=CO.O=CO | 1
CCc1cc([C@H]2O[C@@H](n3cnc4c(NCC(c5ccccc5)c5ccccc5)nc(NCCNc5ccccn5)nc43)[C@H](O)[C@@H]2O)on1.O=CO.O=CO | 1
CCc1cc([C@H]2O[C@@H](n3cnc4c(NCC(c5ccccc5)c5ccccc5)nc(NCCN5CCCCC5)nc43)[C@H](O)[C@@H]2O)on1.O=CO.O=CO | 1
CCc1cc(C2OC(n3cnc4c(NCCC5CCCCC5)nc(NCCc5cn(C)cn5)nc43)C(O)C2O)on1.O=CO.O=CO (stereo not drawn) | 1
CCc1cc(C2OC(n3cnc4c(NC(CC)CC)nc(NC5CCNC5)nc43)C(O)C2O)on1 (stereo not drawn) | -1
